These data points were gathered from the supplement of paper PMC9170038.

System: MS2 coat protein
Test: apparent KD of MS2 coat protein; designed switch direction (-1 OFF switch, 1 ON switch): 1; higher = weaker reporter binding
Settings: input ligand: microRNA oligo, concentration not stated
In this section we review reported apparent KD of MS2 coat protein values for a set of sequences.
Your answer is read as nM, so omit the unit and give the number.

Can you look up the measured apparent KD of MS2 coat protein of AUCCCAUCGGGAGGAUAUGGAACCUUAUUGGUUCUAGAAGGUCCAACAUGAGGAUCACCCAUGUGGGAGUGGUCUAAUGACCAC [SS NG10LRO01] (Eterna round: R96, puzzle: Same State NG 1) for me?
208

Entry GUACUCAUGUAAGGAUAUGCAGCCGUUUCGGCUGCAGAAGGUACUAUAAUACAUGAGGAUCACCCAUGUCUCUAUAAUUUAGUG [salish99_SSNG1_r04_901] (Eterna round: R96, puzzle: Same State NG 1) please
34.5

What do you have for UUAAUUAUGUAAGGAUAUACAUGAGGAUUUCUCGUAGAAGGUACAUUACAUGAGGAUCACCCAUGUGGGUGUCCGUAGACGCCA [JL SSNG1 1.06] (Eterna round: R96, puzzle: Same State NG 1) ?
475
